# System: VchCAST RNA-guided transposition machinery (E. coli BL21(DE3) host, lacZ target)
# METHOD: relative integration efficiency (T-LR orientation) vs wild-type transposon end (log2 (normalized fold change)); transposon end mutated: right end (5 bp flank + 75 bp right end); higher = more efficient transposition
Could you please report measured relative integration efficiency (log2) for the items listed next?
Give bare numbers.

Below: 4 sequences and their reported relative integration efficiency (log2).
ACATTTGTTGATACACCCATAAATTGATAATTACAACCATAAGTTGATATTTTTCACACCCATAAATTGATATTGCCTCTGATCATAGTCAGACCAACATTGCTACGACCCGTATTCGCACCGACAC    -0.56
ACATTTGTTGATACAACCATAAAAGGATCATTACCCCCATAAATTGATAATTATCCCACCCCATTTAACTATAACGCTCTGATCATAGTCAGACCAACATTGCTACGACCCGTATTCGCACCGACAC    0.775
ACATTTGTTGATACAACCATAAAATGATAAAATCACCCATAAATTGATAAAATTCACACCCATAAATTGATATACGCTCTGATCATAGTCAGACCAACATTGCTACGACCCGTATTCGCACCGACAC    -0.368
ACATTTGTTGATACAACCATAAAATGATAATTAATAATTATTTATAATCAGCAACTTAACCACAAACACCCATAAATTGATAATTATCACACCCATAAATTGATATTGCCTCTGATCATAGTCAGAC    -4.03

relative integration efficiency (log2) for VchCAST RNA-guided transposition machinery (E. coli BL21(DE3) host, lacZ target) with input `ACATTTGTTGATACAACCATAAAATCATCATTACCCCCATAAATTGATAATTATCACACCCCATTTAACTATAACGCTCTGATCATAGTCAGACCAACATTGCTACGACCCGTATTCGCACCGACAC` equals -0.211

----------
# Test system: VchCAST RNA-guided transposition machinery (E. coli BL21(DE3) host, lacZ target)
# METHOD: relative integration efficiency (T-LR orientation) vs wild-type transposon end (log2 (normalized fold change)); transposon end mutated: right end (5 bp flank + 75 bp right end); higher = more efficient transposition
Could you please report measured relative integration efficiency (log2) for the items listed next?
Numbers only.

Below: 8 sequences and their reported relative integration efficiency (log2).
ACATTTGTTGATACACCCATAAATTGATATTGCCACCCATAAATTGATAATTATCACAACCATAAAATGATAATTACTCTGATCATAGTCAGACCAACATTGCTACGACCCGTATTCGCACCGACAC    -0.453
ACATTTGATGATACTACCATTTAATGATAATAACACCCATAAAATGATAATTATCACACCCAATTTAACTATAACGCTCTGATCATAGTCAGACCAACATTGCTACGACCCGTATTCGCACCGACAC    -0.158
ACATTTGTTGATACAACCATAAAGTGATATTTACAACCATAAGTTGATATTTTTCAGTGGGTATTTAACTATAACGCTCTGATCATAGTCAGACCAACATTGCTACGACCCGTATTCGCACCGACAC    2.73
ACATTTGTTGATACAACCATAAGTTGATATTTTCACCCATAAATTGATATTGCTCAGTGGGTATTTAACTATAACGCTCTGATCATAGTCAGACCAACATTGCTACGACCCGTATTCGCACCGACAC    2.31
ACATTTGTTGATACAACCATAAAGTGATATTTACACCCATAAATTGATAATTATCACAACCATAAAGTGATATTTACTCTGATCATAGTCAGACCAACATTGCTACGACCCGTATTCGCACCGACAC    -0.0182
ACATTTGTCGATACAACCATAAAATGATAATTCACCCATAAATTGATAATTATCACACCCCAATTTAACTATAACGCTCTGATCATAGTCAGACCAACATTGCTACGACCCGTATTCGCACCGACAC    1.05
ACATTTGTTGATACAACCAGCCCCTGATAATTACACCCAGCCCGTGATAATTATCACACCCAGCCCGTGATATTGCCTCTGATCATAGTCAGACCAACATTGCTACGACCCGTATTCGCACCGACAC    -4.67
ACATTTGTGGATACAACCATAAAATGATAATTACACCCATAAATTCATTATTATCACACCCAATTTAACTATAACGCTCTGATCATAGTCAGACCAACATTGCTACGACCCGTATTCGCACCGACAC    0.908

Please state relative integration efficiency (log2) for every sequence in the list that follows.
1. ACATTTGTTGATACAACCATAAAATGATAATTACACCCTAAAATTGATAATTATCACACCCATAAATTGATATTGCCTCTGATCATAGTCAGACCAACATTGCTACGACCCGTATTCGCACCGACAC
2. ACATTTGTTGATACAACCCTAAAATGATAATTACACCCATAAATTGATCATTATCACACCCAATTTAACTATAACGCTCTGATCATAGTCAGACCAACATTGCTACGACCCGTATTCGCACCGACAC

1. -1.14
2. 0.357
